B1: PKD2L1 (parent)
chain: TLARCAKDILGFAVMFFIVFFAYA

Variants of: B1
Assay: protein stability index of a GFP-peptide fusion (GPS, HEK-293T) (PSI 1-6); higher = more stable;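 note: lentivirally expressed fusions sorted by FACS into six bins by GFP to DsRed ratio, PSI derived from sequencing read proportions per bin multiplied by bin number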
Conditions: c terminus: a fixed tail appended
protein stability index reference
API doc: respond with a numeric literal and nothing else, no unit.

Illustrative cases are given below, each with its answer.
QUERY: Hello, please tell me recorded protein stability index for this one: `V19N`
RESULT: 2.39

QUERY: Please give the documented protein stability index of `V14A`
RESULT: 2.06

QUERY: Give protein stability index for `I9F`
RESULT: 3.86

QUERY: State its protein stability index: `V19E`
RESULT: 2.11

Now consider the entry below.
QUERY: Consider the variant `F21I` . State its measured protein stability index.
RESULT: 3.32
